Hey, just so you know, these numbers are from patent US10500198B2.

system: CasKi; assay: Cell viability after 48-hr treatment (Table 1); type: cell-based; conditions: Homo sapiens, Ca-Ski; 48-hr treatment; XTT assay; read-out: IC50, CasKi
For each of the molecules below, state its pIC50.
In textbook form, pIC50 equals minus log to base ten of the concentration in mol/L.

Form field pIC50, entry CC(=O)N[C@@H](Cc1ccccc1)C(=O)N1C/C(=C\c2ccc(Cl)c(Cl)c2)C(=O)/C(=C/c2ccc(Cl)c(Cl)c2)C1 [RA190Ac] : 6.52

molecule CC(C)C[C@H](NC(=O)[C@H](Cc1ccccc1)NC(=O)c1cnccn1)B(O)O [Bortezomib, reference compound] , pIC50 observed: 7.30

====

test system: HOK-16B; experiment: Cell viability after 48-hr treatment (Table 1); type: cell-based; settings: 48-hr treatment; XTT assay; read-out: IC50, HOK-16B
pIC50: −log10 of the molar value. Structures can show the parent of a compound that is named as a salt.
Could you label it fulfilled if measured pIC50 is 6 or higher, and not fulfilled otherwise?

hey, is pIC50 for this one >= 6? N[C@@H](Cc1c[nH]cn1)C(=O)N1CC(=Cc2ccc(Cl)c(Cl)c2)C(=O)C(=Cc2ccc(Cl)c(Cl)c2)C1 [RA196, di HCl salt]
not fulfilled

Kindly determine if pIC50 recorded for `N[C@@H](Cc1ccccc1)C(=O)N1CC(=Cc2ccccc2)C(=O)C(=Cc2ccccc2)C1` is above or exactly 6.
not fulfilled

API: above_or_equal(metric=pIC50, cutoff=6) for item CC(C)C[C@H](NC(=O)[C@H](Cc1ccccc1)NC(=O)c1cnccn1)B(O)O [Bortezomib, reference compound]
fulfilled

Assess whether reported pIC50 for `Cl.N[C@@H](Cc1ccccc1)C(=O)N1CC(=Cc2ccc(Cl)c(Cl)c2)C(=O)C(=Cc2ccc(Cl)c(Cl)c2)C1` sits at 6 or higher.
fulfilled

Hi, just wondering whether `N[C@@H](Cc1ccccc1)C(=O)N1CC(=Cc2ccccc2Cl)C(=O)C(=Cc2ccccc2Cl)C1` shows pIC50 of 6 or higher.
not fulfilled

====

tested on: HT3; experiment: Cell viability after 48-hr treatment (Table 1); assay type: cell-based; conditions: Homo sapiens, HT-3; 48-hr treatment; XTT assay; read-out: IC50, HT3
recorded metric: IC50

The compound CC(C)C[C@H](NC(=O)[C@H](Cc1ccccc1)NC(=O)c1cnccn1)B(O)O [Bortezomib, reference compound] , tested on HT3, showed IC50 of < 2.5 µM

Assay HT3, sample CC(=O)N[C@@H](Cc1ccccc1)C(=O)N1C/C(=C\c2ccc(Cl)c(Cl)c2)C(=O)/C(=C/c2ccc(Cl)c(Cl)c2)C1 [RA190Ac] , IC50 read: > 5 µM

====

molecular target: purified 20S proteasomes (Homo sapiens, UniProt P28072+P28074+Q99436); assay: 20S proteolytic activity assay; assay type: biochemical; settings: 1 μM, 30 min
recorded metric: chymotryptic activity of the 20S proteasome (Suc-LLVY-AMC)

chymotryptic activity of the 20S proteasome (Suc-LLVY-AMC) for `Cl.N[C@@H](Cc1ccccc1)C(=O)N1C/C(=C\c2ccc([N+](=O)[O-])cc2)C(=O)/C(=C/c2ccc([N+](=O)[O-])cc2)C1` is do not

The value of chymotryptic activity of the 20S proteasome (Suc-LLVY-AMC) measured for the compound `Cl.NCCCC[C@H](NC(=O)OCC1c2ccccc2-c2ccccc21)C(=O)N1C/C(=C\c2ccc(Cl)c(Cl)c2)C(=O)/C(=C/c2ccc(Cl)c(Cl)c2)C1` turned out to be do not

chymotryptic activity of the 20S proteasome (Suc-LLVY-AMC) reading for `Cl.N[C@@H](Cc1ccccc1)C(=O)N1CC(=Cc2ccc(Cl)c(Cl)c2)C(=O)C(=Cc2ccc(Cl)c(Cl)c2)C1` : do not
